Experiment: Intrinsic clearance in mouse liver microsomes measured after 60 mins in presence of NADPH by LC-MS/MS analysis
Format: ADME, Microsome
Conditions: microsomes, 1 h
Hi there, I'd appreciate the recorded microsomal intrinsic clearance for every entry that follows.
One number for each entry, in µL/min/mg.

Reference set (5 entries):
So what's the measured microsomal intrinsic clearance for this one? Fc1ccc2[nH]c(Cc3c[nH]c4c(F)cccc34)cc2c1
83.9

So what's the measured microsomal intrinsic clearance for this one? O=C(c1cc2cc(F)ccc2[nH]1)c1c[nH]c2c(F)cccc12
34.6

So what's the measured microsomal intrinsic clearance for this one? O=C(c1nc2ccccc2[nH]1)c1c[nH]c2ccccc12
54.6

So what's the measured microsomal intrinsic clearance for this one? O=C(c1nc2ccc(F)cc2[nH]1)c1c[nH]c2c(F)cccc12
46.5

So what's the measured microsomal intrinsic clearance for this one? Fc1ccc2nc(Cc3c[nH]c4c(F)cccc34)[nH]c2c1
194.9

Here is the next item to consider.
So what's the measured microsomal intrinsic clearance for this one? [2H]C([2H])(c1nc2cc(F)ccc2[nH]1)c1c[nH]c2c(F)cccc12
85.2

----------
Assay: Intrinsic clearance in rat liver microsomes measured after 60 mins in presence of NADPH by LC-MS/MS analysis
Format: ADME, Microsome
Conditions: liver microsomes, read-out: CLH
outcome-measure: microsomal CLint (µL/min/mg)
One number for each entry, in µL/min/mg.

So what's the measured microsomal CLint for this one? Cn1c(C(=O)c2c[nH]c3c(F)cccc23)nc2ccc(F)cc21
23

----------
Experiment: Half life in rat liver microsomes measured after 60 mins in presence of NADPH by LC-MS/MS analysis
Assay type: ADME, Microsome
Settings: 1 h
Please use YES whenever t1/2 is not below 20 min, and NO whenever it is.

Say whether O=C(c1nc2ccccc2[nH]1)c1c[nH]c2ccccc12 shows t1/2 of 20 min or more.
YES

Say whether Fc1ccc2nc(Cc3c[nH]c4c(F)cccc34)[nH]c2c1 shows t1/2 of 20 min or more.
NO

Say whether Fc1ccc2[nH]c(Cc3c[nH]c4c(F)cccc34)cc2c1 shows t1/2 of 20 min or more.
YES

Say whether [2H]C([2H])(c1nc2cc(F)ccc2[nH]1)c1c[nH]c2c(F)cccc12 shows t1/2 of 20 min or more.
YES

Continuing:
Say whether O=C(c1nc2ccc(F)cc2[nH]1)c1c[nH]c2c(F)cccc12 shows t1/2 of 20 min or more.
YES

Say whether O=C(c1cc2cc(F)ccc2[nH]1)c1c[nH]c2c(F)cccc12 shows t1/2 of 20 min or more.
YES

----------
Hi there, I'd appreciate the recorded half-life for every entry that follows.
Experiment: Half life in BTBR mouse at 6 mg/kg, ip administered as single dose by LC-MS/MS analysis
Format: ADME, organism-based
Conditions: in vivo
Answers are plain numbers, in h.

So what's the measured half-life for this one? O=C(c1cc2cc(F)ccc2[nH]1)c1c[nH]c2c(F)cccc12
1.31

Here is the next item to consider.
So what's the measured half-life for this one? O=C(c1nc2ccc(F)cc2[nH]1)c1c[nH]c2c(F)cccc12
1.64

----------
Hi there, I'd appreciate the recorded Intrinsic clearance in rat liver microsomes for every entry that follows.
Assay: Intrinsic clearance in rat liver microsomes measured after 60 mins in presence of NADPH by LC-MS/MS analysis
Format: ADME, Microsome
Details: microsomes, 1 h
Report field: quantity (unit follows the number).

Reference set (3 entries):
So what's the measured Intrinsic clearance in rat liver microsomes for this one? Fc1ccc2[nH]c(Cc3c[nH]c4c(F)cccc34)cc2c1
60.7 µL/min/mg

So what's the measured Intrinsic clearance in rat liver microsomes for this one? O=C(c1nc2ccccc2[nH]1)c1c[nH]c2ccccc12
33.1 µL/min/mg

So what's the measured Intrinsic clearance in rat liver microsomes for this one? Fc1ccc2nc(Cc3c[nH]c4c(F)cccc34)[nH]c2c1
145.6 µL/min/mg

Each of the following entries comes with a recorded value; kindly state Intrinsic clearance in rat liver microsomes for each.
1. [2H]C([2H])(c1nc2cc(F)ccc2[nH]1)c1c[nH]c2c(F)cccc12
2. O=C(c1cc2cc(F)ccc2[nH]1)c1c[nH]c2c(F)cccc12
3. O=C(c1nc2ccc(F)cc2[nH]1)c1c[nH]c2c(F)cccc12

1: 59.1 µL/min/mg; 2: 18.1 µL/min/mg; 3: 29.4 µL/min/mg
